target_or_system: Lymphokine-activated killer T-cell-originated protein kinase (Homo sapiens)
Sequence (Q96KB5 whole entry): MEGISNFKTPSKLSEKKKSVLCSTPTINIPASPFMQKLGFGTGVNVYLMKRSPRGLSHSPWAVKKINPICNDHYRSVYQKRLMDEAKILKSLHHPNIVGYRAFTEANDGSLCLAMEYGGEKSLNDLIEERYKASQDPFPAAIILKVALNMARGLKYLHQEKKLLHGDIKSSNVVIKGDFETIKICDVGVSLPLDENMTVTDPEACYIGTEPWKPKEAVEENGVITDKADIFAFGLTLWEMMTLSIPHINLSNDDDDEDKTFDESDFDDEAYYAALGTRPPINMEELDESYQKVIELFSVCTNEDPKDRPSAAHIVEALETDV
assay_summary: Kinase Assay
assay_setup: pH 7.4; 25 °C
pIC50: −log10 of the molar value.
outcome_measure: pIC50

* CC(=O)Oc1ccc2[nH]c(=O)c3sccc3c2c1-c1ccc(C(C)N)cc1 (stereo not drawn) | 7.48
* CC(N)Cc1ccc(-c2c(O)cc(Cl)c3[nH]c(=O)c4sccc4c23)cc1 (stereo not drawn) | 7.39
* Cc1cc(O)c(-c2ccc([C@@H](C)CN)cc2)c2c1[nH]c(=O)c1sc(Cl)cc12 | 8.40
* Cc1cc(O)c(-c2ccc(C3(CN(C)C)CCC3)cc2)c2c1[nH]c(=O)c1sccc12 | 7.38
* CC[C@H](NC)c1ccc(-c2c(O)cc(Cl)c3[nH]c(=O)c4sccc4c23)cc1 | 8.03
* O=c1[nH]c2ccc(O)c(-c3ccc4c(c3)CNCC4)c2c2ccsc12 | 8.70
* CS(=O)(=O)N1CCN(c2ccc(-c3c(O)ccc4[nH]c(=O)c5sccc5c34)cc2)CC1 | 7.92
* CCC(N)c1ccc(-c2c(O)cc(Cl)c3[nH]c(=O)c4sccc4c23)cc1 (stereo not drawn) | 7.80
* CN[C@H](C)c1ccc(-c2c(O)cc(Br)c3[nH]c(=O)c4sccc4c23)cc1 | 7.52
* CC(O)c1ccc(-c2c(O)ccc3[nH]c(=O)c4sccc4c23)cc1 (stereo not drawn) | 8.70
* CNC[C@H](C)c1ccc(-c2c(OC)ccc3[nH]c(=O)c4sccc4c23)cc1 | 8.52
* O=c1[nH]c2ccc(O)c(-c3ccc(S(=O)(=O)NCCBr)c(F)c3)c2c2ccsc12 | 7.89
* COc1cc(C)c2[nH]c(=O)c3sccc3c2c1-c1ccc(C2(CN)CCC2)cc1 | 7.46
* CC(C)(CN)c1ccc(-c2c(O)cc(Cl)c3[nH]c(=O)c4sccc4c23)cc1 | 7.12
* CN[C@H](C)c1ccc(-c2c(O)cc(C)c3[nH]c(=O)c4sccc4c23)cc1 | 7.92
* NC1Cc2ccc(-c3c(O)ccc4[nH]c(=O)c5sccc5c34)cc2C1 (stereo not drawn) | 8.92
* CCNC(C)c1ccc(-c2c(O)ccc3[nH]c(=O)c4sccc4c23)cc1 (stereo not drawn) | 8.41
* CCC(N)c1ccc(-c2c(OC)ccc3[nH]c(=O)c4sccc4c23)cc1 (stereo not drawn) | 8.28
* CC(CN)c1ccc(-c2c(O)ccc3[nH]c(=O)c4sccc4c23)cc1F (stereo not drawn) | 8.82
* CCC(CN)c1ccc(-c2c(OC)cc(C)c3[nH]c(=O)c4sccc4c23)cc1 (stereo not drawn) | 7.20
* CN(C)CC(C)(C)c1ccc(-c2c(O)ccc3[nH]c(=O)c4sccc4c23)cc1 | 8.55
* COc1cc(Br)c2[nH]c(=O)c3sccc3c2c1-c1ccc(C2(CN)CC2)cc1 | 7.15
* CC(CN)c1ccc(-c2c(O)ccc3[nH]c(=O)c4sccc4c23)cc1Cl (stereo not drawn) | 8.00
* CCN(CC)CCNCCCOc1ccc(-c2c(OC)ccc3[nH]c(=O)c4sccc4c23)cc1 | 7.33
* CCC(CN)c1ccc(-c2c(O)cc(Cl)c3[nH]c(=O)c4sccc4c23)cc1 (stereo not drawn) | 7.72
* NCc1ccc(-c2c(O)cc(F)c3[nH]c(=O)c4sccc4c23)cc1 | 8.60
* CNCc1ccc(-c2c(O)ccc3[nH]c(=O)c4sccc4c23)cc1 | 9.05
* CN[C@H](C)c1ccc(-c2c(OC)cc(C)c3[nH]c(=O)c4sccc4c23)cc1 | 7.17
* N#CC1(c2ccc(-c3c(O)ccc4[nH]c(=O)c5sccc5c34)cc2)CC1 | 7.49
* CC(N)c1ccc(-c2c(O)ccc3[nH]c(=O)c4sccc4c23)cc1F (stereo not drawn) | 9.04
* CC(C)(CN)c1ccc(-c2c(O)ccc3[nH]c(=O)c4sccc4c23)cc1F | 9.00
* N[C@H]1CCN(c2ccc3[nH]c(=O)c4sc(-c5ccc(O)cc5)cc4c3c2)C1 | 7.11
* CNCCc1ccc(-c2c(O)cc(Cl)c3[nH]c(=O)c4sccc4c23)cc1 | 7.24
